Measured %Inh of individual entries
tested on: JAK3(JH1domain-catalytic); conditions: concentration: 1 μM, replicates: in singlicate; n = 1;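 also: KINOMEscan kinase panel screen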
readout-kind: %Inh (%)

[
  {
    "molecule": "COc1ccc(CNC(=O)NC2CCN(c3ccnc(Nc4ccc(F)cc4)n3)C2)cc1 (centres unmarked)",
    "observed": 0
  },
  {
    "molecule": "Nc1ncnc2c1ncn2-c1cccc2ccccc12",
    "observed": 19
  },
  {
    "molecule": "O=c1cc(N2CCOCC2)nc2n(Cc3ccc(F)c(Cl)c3)ccn12",
    "observed": 0
  },
  {
    "molecule": "CCS(=O)c1ccc(-c2coc3ccc(-c4nnc(C)o4)cc23)cc1 (centres unmarked)",
    "observed": 0
  },
  {
    "molecule": "Nc1nc(N)c2nc(-c3ccccc3)[nH]c2n1",
    "observed": 39
  },
  {
    "molecule": "CCCNC(=O)Nc1ccc(Oc2ncnc3ccn(C)c23)cc1",
    "observed": 0
  },
  {
    "molecule": "FC(F)(F)c1ccc(-c2ncn(CCCN3CCOCC3)c2-c2ccncc2)cc1",
    "observed": 0
  },
  {
    "molecule": "Nc1n[nH]c2nnc(-c3ccccc3)c(-c3ccccc3)c12",
    "observed": 0
  },
  {
    "molecule": "COc1cccc(-n2cnc3c(N)ncnc32)c1",
    "observed": 19
  },
  {
    "molecule": "Fc1cccc(CSc2nnc(-c3ccc4c(c3)CCO4)o2)c1",
    "observed": 3
  },
  {
    "molecule": "Cc1ccccc1COc1cc(-n2cnc3cc(Cl)ccc32)sc1C(N)=O",
    "observed": 0
  },
  {
    "molecule": "CCC(=O)c1c(-c2ccccc2)c2cc(Cl)ccc2c(=O)n1Cc1cc(S(C)(=O)=O)n(CC(N)=O)n1",
    "observed": 0
  },
  {
    "molecule": "CC(C)(C)c1ccc(C(=O)Nc2cn3cc(-c4ccccc4)ccc3n2)cc1",
    "observed": 0
  },
  {
    "molecule": "COc1ccc(-n2cnc3c(N)ncnc32)cc1",
    "observed": 27
  },
  {
    "molecule": "CN(C)c1cc(-c2ccc3c(N)n[nH]c3c2)nc(N)n1",
    "observed": 0
  },
  {
    "molecule": "CCC(=O)c1c(-c2ccccc2)c2cc(Cl)ccc2c(=O)n1Cc1cc(S(C)(=O)=O)n(CC(F)F)n1",
    "observed": 0
  },
  {
    "molecule": "CCC(=O)c1c(-c2ccccc2)c2cc(Cl)ccc2c(=O)n1Cc1cc(S(C)(=O)=O)n(CCC(C)(C)O)n1",
    "observed": 3
  },
  {
    "molecule": "COc1cc2ncn(-c3cc(OCc4ccncc4Br)c(C(N)=O)s3)c2cc1OC",
    "observed": 0
  },
  {
    "molecule": "Nc1ncnc2c1ncn2-c1ccc(Cl)cc1",
    "observed": 0
  },
  {
    "molecule": "Cn1c(=O)c(F)c(Nc2ccc(I)cc2F)c2c(=O)n(OC[C@H](O)CO)cnc21",
    "observed": 1
  },
  {
    "molecule": "Cc1ccc(Oc2ccc(Nc3ncnc4cc[nH]c34)cc2C)cn1",
    "observed": 0
  },
  {
    "molecule": "Cc1cccc(-c2cc(-c3c[nH]nc3-c3ccccn3)ccn2)c1",
    "observed": 0
  },
  {
    "molecule": "CCS(=O)(=O)c1ccc(OC)c(Nc2ncc(-c3ccc(F)cc3)o2)c1.Cl",
    "observed": 0
  },
  {
    "molecule": "CN1C(=O)C(Nc2ccccc2)=C(c2ccccc2)C1=O",
    "observed": 2
  },
  {
    "molecule": "COc1ccc(-c2cc3c(C)nc(N)nc3n([C@H]3CC[C@H](OCCO)CC3)c2=O)cn1",
    "observed": 0
  },
  {
    "molecule": "Cc1cc(Nc2nc(-c3cccc(C)n3)nc3ccccc23)ccn1",
    "observed": 0
  },
  {
    "molecule": "COc1cc2ncn(-c3cc(OCc4ccc(S(C)(=O)=O)cc4)c(C(N)=O)s3)c2cc1OC",
    "observed": 30
  },
  {
    "molecule": "O=C(Nc1n[nH]c2cc(-c3ccccc3F)ccc12)C1CC1",
    "observed": 0
  },
  {
    "molecule": "OCCCNc1nccc(-c2c(-c3cccc(C(F)(F)F)c3)nn3cc(C(F)(F)F)ccc23)n1",
    "observed": 0
  },
  {
    "molecule": "COc1cc(Nc2nccc(N3CCC(NC(=O)C4COc5ccccc5O4)C3)n2)cc(OC)c1OC (centres unmarked)",
    "observed": 55
  },
  {
    "molecule": "COC(=O)c1c(-c2ccccc2)c2cc(Br)ccc2c(=O)n1Cc1ccc(S(C)(=O)=O)cc1",
    "observed": 0
  },
  {
    "molecule": "CCn1c(-c2ccoc2)nc2cnccc21",
    "observed": 0
  },
  {
    "molecule": "Cl.NS(=O)(=O)c1cccc(Nc2cc(-c3ccc(F)cc3)n[nH]2)c1",
    "observed": 0
  },
  {
    "molecule": "Nc1n[nH]c2ncc(-c3ccccc3)cc12",
    "observed": 0
  },
  {
    "molecule": "Cc1nc(N(C)[C@H]2CN(C(=O)CC#N)CC[C@H]2C)c2cc[nH]c2n1",
    "observed": 97.6
  },
  {
    "molecule": "Cc1nnc(-c2ccc(C)c(-c3ccc(C(=O)O)cc3)c2)o1",
    "observed": 0
  },
  {
    "molecule": "COc1ccc(-c2cc3c(C)nc(N)nc3n([C@H]3CC[C@H](O)CC3)c2=O)cn1",
    "observed": 0
  },
  {
    "molecule": "Cc1c(Cn2c(C)nn3c(=O)cc(N4CCO[C@H](C)C4)nc23)cccc1C(F)(F)F",
    "observed": 0
  }
]

Entry source: paper PMC5540273
